The entries below come with measured Plant response rating, Ryegrass, Italian values attached.
- Test system: ryegrass, Italian
- Assay method text: Test C postemergence
- Format: in vivo, Lolium multiflorum
- Experimental context: Postemergence, 500 g ai/ha, 10 days, visual 0 to 100 scale (0 no effect, 100 complete control)
Just the number.

{"Compound": "C[C@H]1CN(C(=O)c2cc(-n3cnc(C(C)(C)C)n3)cc3c2OCCO3)c2cccc(Cl)c2O1", "Plant response rating, Ryegrass, Italian": 70}
{"Compound": "Cc1ccc(-n2cnc(C[S+](C)[O-])n2)cc1C(=O)N1C[C@H](C)Oc2c(Cl)cccc21 (some centres unmarked)", "Plant response rating, Ryegrass, Italian": 100}
{"Compound": "Cc1cc(-n2cnc(C(C)C)n2)cc(C(=O)N2C[C@H](C)Oc3c(Cl)cccc32)c1Cl", "Plant response rating, Ryegrass, Italian": 70}
{"Compound": "COC[C@H]1CN(C(=O)c2cc(-n3cncn3)ccc2C)c2cccc(Cl)c2O1", "Plant response rating, Ryegrass, Italian": 90}
{"Compound": "CC(C)c1ncn(-c2cc(OC(F)F)c(OC(F)F)c(C(=O)N3C[C@H](C)Oc4c(Cl)cccc43)c2)n1", "Plant response rating, Ryegrass, Italian": 0}

(Q) So what's the measured Plant response rating, Ryegrass, Italian for this one? CCc1ncn(-c2ccc(C)c(C(=O)N3CC(C(F)(F)F)Oc4c(Cl)cccc43)c2)n1 (single isomer, unassigned)
(A) 90

(Q) So what's the measured Plant response rating, Ryegrass, Italian for this one? `COc1ccc(-n2cnc(C(C)C)n2)cc1C(=O)N1C[C@H](C)Oc2c(C)cccc21`
(A) 90

(Q) So what's the measured Plant response rating, Ryegrass, Italian for this one? `Cc1ccc(-n2cnc(C(C)C)n2)cc1C(=O)N1C[C@H](C)Oc2c(F)cccc21`
(A) 100

(Q) So what's the measured Plant response rating, Ryegrass, Italian for this one? `C[C@H]1CN(C(=O)c2cc(-n3cnc(C4CC4)n3)cc3c2OCCO3)c2cccc(Cl)c2O1`
(A) 90

(Q) So what's the measured Plant response rating, Ryegrass, Italian for this one? `C[C@H]1CN(C(=O)c2cccc(-n3cnc(C(C)(C)O)n3)c2)c2cccc(Cl)c2O1`
(A) 100

(Q) So what's the measured Plant response rating, Ryegrass, Italian for this one? `CCc1c(F)cc(-n2cnc(C(C)C)n2)cc1C(=O)N1C[C@H](C)Oc2c(Cl)cccc21`
(A) 60

(Q) So what's the measured Plant response rating, Ryegrass, Italian for this one? `CC(C)c1ncn(-c2cc3c(c(C(=O)N4C[C@H](C)Oc5c(Cl)cccc54)c2)CCC3)n1`
(A) 70

(Q) So what's the measured Plant response rating, Ryegrass, Italian for this one? `CC(C)c1ncn(-c2cc3c(c(C(=O)N4C[C@H](C)Oc5c(Cl)cccc54)c2)OCCCO3)n1`
(A) 70

(Q) So what's the measured Plant response rating, Ryegrass, Italian for this one? `CCc1ncn(-c2cc(OC)cc(C(=O)N3C[C@H](C)Oc4c(Cl)cccc43)c2)n1`
(A) 90
